Test system: smooth muscle cells (SMCs)
Experiment: SMC proliferation inhibition (BrdU-ELISA or cell counting)
Assay type: cell-based
Conditions: 96 h, SMCs, 2000 cells per well; BrdU-ELISA (paclitaxel: counting the number of cells); 24, 48, 72, 96 h
The entries below are paired with their reported IC50.

>  <item-smiles>
CC(=O)O[C@H]1C(=O)[C@@]2(C)[C@H]([C@H](OC(=O)c3ccccc3)[C@]3(O)C[C@H](OC(=O)[C@H](O)[C@@H](NC(=O)c4ccccc4)c4ccccc4)C(C)=C1C3(C)C)[C@]1(OC(C)=O)CO[C@@H]1C[C@@H]2O

>  <target-entity>
smooth muscle cells (SMCs)

>  <IC50>
~10 nM

$$$$
>  <item-smiles>
COc1ccc(/C=C\c2cc(OC)c(OC)c(OC)c2)cc1O

>  <target-entity>
smooth muscle cells (SMCs)

>  <IC50>
~0.5 nM

$$$$
